- Run description: NCI Yeast Anticancer Drug Screen. Data for the mlh1 rad18 strain (AID 175)
- Assay setup: S. cerevisiae mlh1 rad18 strain growth inhibition; at 50.0 µM; hits give high values
- Description: Growth inhibition of yeast strains with defined genetic alterations is measured as a screen for potential anti-cancer activity. Selected strains with alterations in DNA damage repair or cell cycle control were exposed to compounds and growth inhibition was measured relative to vehicle treated controls. The strain used in this assay is mlh1 rad18
Compounds without any hit were thinned out: in the full panel of roughly 79,000, 15% have a hit.
Readout: growth inhibition (%)
Return type: number; implicit unit %.

Compound: N=C(N)C1CC1
growth inhibition [%]: -13.2
//
Compound: NC1=NN(S(=O)(=O)c2ccc(Cl)cc2)CC1
growth inhibition [%]: 5.95
//
Compound: CN(c1ccccc1)c1ccc([N+](=O)[O-])cc1[N+](=O)[O-]
growth inhibition [%]: -11.9
//
Compound: CCOC(=O)C1=C(C(C)=O)C(c2ccc(OC)c(OC)c2)C(C(C)=O)=C(C(=O)OCC)N1
growth inhibition [%]: 8.55
//
Compound: CC1CS(=O)(=O)CC(C)S1(=O)=O (configuration not stated)
growth inhibition [%]: -7.05
//
Compound: O=C1CS(=O)(=O)C2(CCCCC2)C(=O)N1
growth inhibition [%]: -27.6

Read the next record carefully.
Please report the measured growth inhibition for `O=c1oc2ccc(Cl)cc2c(=O)n1-c1cc(Cl)ccc1[N+](=O)[O-]`
21.6

Origin of values: PubChem BioAssay (NCI)
